The values you see were collected from PubChem BioAssay (NCI).

test system: HOP-62 NSCLC; assay: NCI-60 one-dose screen, 48 h (100 = growth as untreated, 0 = no growth, -100 = all killed); settings: 10 µM unless noted
The panel holds about 83,000 compounds, 20% with a hit somewhere; the sample as a whole holds those more often.
Each entry gets False if its growth stays under 60%, and True if its growth is 60% or above.

[Q] Test whether the compound O=C(/C=C/c1ccc(Cl)cc1)c1ccc(NC(=O)N2CCN(c3cc4c(cc3F)c(=O)c(C(=O)O)cn4C3CC3)CC2)cc1 records growth of 60% or higher.
[A] True

[Q] Test whether the compound Nc1n[nH]c2cccc(C#Cc3cccc(C(=O)Nc4cc(CN5CCOCC5)cc(C(F)(F)F)c4)c3)c12 records growth of 60% or higher.
[A] False

[Q] Test whether the compound COc1cc(NC(=O)CSc2nc3ccc(C)cc3c(=O)n2Cc2ccccc2)cc(OC)c1OC records growth of 60% or higher.
[A] False

[Q] Test whether the compound COc1cc2oc(-c3cccc(C(=O)Nc4ccc(Br)cc4)c3)cc(=O)c2c(OC)c1OC records growth of 60% or higher.
[A] False

[Q] Test whether the compound O=C(NO)c1ccc(-n2nc(-c3ccccc3)c3ccccc32)cc1 records growth of 60% or higher.
[A] False

[Q] Test whether the compound CCOc1ccc(Nc2nc(-c3ccc4c(c3)NC(=O)CO4)cs2)cc1 records growth of 60% or higher.
[A] True

[Q] Test whether the compound COc1ccc(-c2[nH][nH]c(=O)c2-c2nc3ccccc3s2)cc1 records growth of 60% or higher.
[A] True

[Q] Test whether the compound COc1ccc(/C=C/C(=O)Nc2cc(/C=C\c3cc(OC)c(OC)c(OC)c3)cc(OC)c2OC)cc1OC records growth of 60% or higher.
[A] False

----------
tested on: HS 578T breast; test: NCI-60 one-dose screen, 48 h; settings: 10 µM unless noted
This is part of a sample that, as a whole, favours compounds with a hit. Of some 83,000 tested, about 20% had one in any assay. The source made the active and inactive calls. The calls were made as follows: active = growth percent below 10; inactive = the rest.
Write down one outcome, taken from active, inactive

Record excerpt, results attached:
[Q] Which result was noted for this compound in the test: CC(C)N1C(=O)S/C(=C2/SC(=O)N(C(C)C)C2=O)C1=O
[A] inactive

[Q] Which result was noted for this compound in the test: CCCCCN1C=C/C(=C\C(=O)N(C)c2ccc(Oc3ccccc3)cc2)c2ccccc21
[A] inactive

[Q] Which result was noted for this compound in the test: Cn1ccnc1C(=O)/C=C/c1ccc(CC(=O)NC2CCCCC2)cc1
[A] inactive

Further cases:
[Q] Which result was noted for this compound in the test: Nc1c(C(=O)Nc2cccc3cnccc23)sc2nc3c(cc12)CN(Cc1ccccc1)CC3
[A] inactive

[Q] Which result was noted for this compound in the test: C[C@@H](Nc1ncnc2ccc(-c3cnc(N)nc3)cc12)c1ccc(F)cc1
[A] inactive

[Q] Which result was noted for this compound in the test: N#Cc1c(NCc2ccccc2I)sc2c1CCCCC2
[A] inactive

[Q] Which result was noted for this compound in the test: O=C(Nc1ccc(F)cc1)Nc1ccc(NC(=O)c2cc(Cl)nc3ccccc23)cc1
[A] active

[Q] Which result was noted for this compound in the test: O=S(=O)(NCCNc1nccc(-c2c(-c3cccc(F)c3)nc3sccn23)n1)c1ccc(Cl)cc1
[A] inactive

[Q] Which result was noted for this compound in the test: O=C(c1nc2ccccc2[nH]1)C1C(c2ccc(Cl)cc2)C2CC3CCCC[C@H]3N2[C@@]12C(=O)Nc1cc(Cl)ccc12 (stereo partly specified)
[A] inactive

[Q] Which result was noted for this compound in the test: C=C1C(=O)O[C@H]2[C@H]1CC/C(C(=O)NCCCCCNC(=O)/C1=C/CC[C@@]3(C)O[C@H]3[C@H]3OC(=O)C(=C)[C@@H]3CC1)=C\CC[C@@]1(C)O[C@@H]21
[A] inactive

[Q] Which result was noted for this compound in the test: Cc1cccc(C)c1N=c1oc2ccc(Cl)cc2nc1-c1ccccc1O
[A] inactive

[Q] Which result was noted for this compound in the test: COc1ccc(/C=C/c2nc(Nc3cccc(NC(C)=O)c3)c3ccccc3n2)cc1
[A] inactive

[Q] Which result was noted for this compound in the test: O=S(=O)(NCCNc1nccc(-c2c(-c3cccc(F)c3)nc3sccn23)n1)c1ccccc1
[A] inactive

[Q] Which result was noted for this compound in the test: Cc1ccc(S(=O)(=O)NNC(=O)/C(=C\c2ccc(Cl)cc2)c2nc3ccccc3s2)cc1
[A] inactive

[Q] Which result was noted for this compound in the test: O=[N+]([O-])CC(c1ccccc1F)c1c[nH]c2ccccc12 (stereo unspecified)
[A] inactive

[Q] Which result was noted for this compound in the test: COc1ccc(/C=C2\COc3ccc(-c4ccccc4)cc3C2=O)c(OC)c1
[A] inactive

[Q] Which result was noted for this compound in the test: O=C(c1ccccc1)N1N=C(c2ccc(-n3ccc(C(F)(F)F)n3)c(F)c2)CC1c1ccc[nH]1 (stereo unspecified)
[A] inactive

[Q] Which result was noted for this compound in the test: COc1ccc(C(=O)/C=C/c2cc3ccccc3n3nnnc23)cc1
[A] inactive

[Q] Which result was noted for this compound in the test: O=Cc1ccc(-c2cn3ccnc3c(-c3ccc4ncn(Cc5ccccc5)c4c3)n2)cc1
[A] inactive

[Q] Which result was noted for this compound in the test: COc1cc2c(c(O)c1Cl)C(=O)c1c(O)cc(C[C@H](C)O)cc1[C@H]2[C@H]1c2cc(C[C@H](C)O)cc(O)c2C(=O)c2c1cc(OC)c(Cl)c2O
[A] inactive

[Q] Which result was noted for this compound in the test: C=C1C(=O)O[C@H]2[C@H]1CC/C(COC(=O)NCc1c[nH]c3ccc(Br)cc13)=C\CC[C@@]1(C)O[C@@H]21
[A] inactive

[Q] Which result was noted for this compound in the test: O=C(N/N=C/c1cc2ccccc2n2nnnc12)Nc1ccccc1
[A] inactive

[Q] Which result was noted for this compound in the test: CN1CCN(C(=O)[C@]23CCC(C)(C)C[C@H]2C2=CC[C@@H]4[C@@]5(C)C/C(=C/c6ccncc6)C(=O)C(C)(C)[C@@H]5CC[C@@]4(C)[C@]2(C)CC3)CC1
[A] inactive
